These measurements were taken from the NIST ThermoML archive (doi:10.1021/je0504459).

# study.conditions: 303.15 K; 101 kPa; Liquid; Sing-around technique in a fixed-path interferometer
value.kind: speed of sound (m/s)
Give the number; m/s is assumed, so skip it.

Looking up CCCCCO [pentan-1-ol] , I found its speed of sound recorded as 1264

Looking up CCCCCCO [hexan-1-ol] , I found its speed of sound recorded as 1289

Looking up CCCCCCCO [heptan-1-ol] , I found its speed of sound recorded as 1312

Looking up ClC(Cl)Cl [trichloromethane] , I found its speed of sound recorded as 969

====

# study.conditions: 313.15 K; 101 kPa; Liquid; Sing-around technique in a fixed-path interferometer
value.kind: speed of sound (m/s)
Give the number; m/s is assumed, so skip it.

Looking up ClC(Cl)Cl , I found its speed of sound recorded as 934

Looking up CCCCCCCO , I found its speed of sound recorded as 1278

Looking up CCCCCCO , I found its speed of sound recorded as 1256

Looking up CCCCCO , I found its speed of sound recorded as 1228

====

# study.conditions: 313.15 K; 101 kPa; Liquid
value.kind: mass density (kg/m3)
Give the number; kg/m3 is assumed, so skip it.

Looking up ClC(Cl)Cl [trichloromethane] , I found its mass density recorded as 1449.74

Looking up CCCCCCCO [heptan-1-ol] , I found its mass density recorded as 807.77

Looking up CCCCCO [pentan-1-ol] , I found its mass density recorded as 800.99

Looking up CCCCCCO [hexan-1-ol] , I found its mass density recorded as 804.24

====

# study.conditions: 303.15 K; 101 kPa; Liquid
Please go through the items and note down their kinematic viscosity.
Give the number; m2/s is assumed, so skip it.

Looking up CCCCCCO [hexan-1-ol] , I found its kinematic viscosity recorded as 4.68e-06

Looking up CCCCCCCO [heptan-1-ol] , I found its kinematic viscosity recorded as 6.19e-06

Looking up CCCCCO [pentan-1-ol] , I found its kinematic viscosity recorded as 3.73e-06

Looking up ClC(Cl)Cl [trichloromethane] , I found its kinematic viscosity recorded as 3.63e-07
